# assay.comment: in-vitro protein binding: free fraction / fraction unbound, matrix and species not given
# Assay type: in vitro ADME
# Description: We have adapted a previously reported cyclooxygenase enzymatic assay utilizing LCMS quantification of PGE2 as the product of COX-1 and COX2 catalyzed conversion of arachidonic acid to evaluate the binding properties of newly synthesized ligands [Cao, 2011]. […] Using these enzymatic assays, we have evaluated>200 newly synthesized ligands against COX2 and >20 ligands against COX-1. […]
readout.type: fraction unbound
Kindly provide the number alone.

Q. // fraction unbound lookup, key: COc1ncc(-c2ccc(S(C)(=O)=O)cc2)nc1NCc1cccs1
A. 0.025

###

# IC50 annotations
# target.desc: human recombinant COX2 (hCOX2)
# assay.comment: LCMS-based COX2 enzymatic inhibition assay (PGE2 quantification)
# Type: biochemical
# Set-up: COX2 2 minutes pge2/pge2d4 area ratio Avg; other: 2 minutes; readout pge2/pge2d4 area ratio; average; COX2 2 minutes pge2/pge2d4 area ratio Avg; LLE; average LLE; COX2 2 minutes pge2 area (counts) Avg; readout pge2 area (counts); other: 2 min; "ovine COX2 (oCOX2), human recombinant COX2 (hCOX2)"
# test.context: 2 minutes; readout pge2 area (counts); average; read-out: COX2 2 minutes pge2 area (counts) Avg. IC50
State the answer as a number, implicitly in nM.

Solved cases below.
CS(=O)(=O)c1ccc(-c2cncc(NCc3ccco3)n2)cc1 [Compound 120]	124
COc1ncc(-c2ccc(S(N)(=O)=O)cc2)nc1NCc1cccs1 [Compound 64]	36.6
CS(=O)(=O)c1ccc(-c2cccc(NCc3ncco3)n2)cc1 [Compound 231]	2730
CS(=O)(=O)c1ccc(-c2cnnc(NCc3cccs3)n2)cc1 [Compound 114]	131
COc1ncc(NCc2cccnc2)nc1-c1ccc(S(C)(=O)=O)cc1 [Compound 166]	380

Q. // IC50 lookup, key: CS(=O)(=O)c1ccc(-c2cccc(/C=C\c3cccs3)n2)cc1 [Compound 41]
A. 21.7

Q. // IC50 lookup, key: CS(=O)(=O)c1ccc(-c2cncc(NC[C@H]3CCCS3)n2)cc1 (single isomer, unassigned) [Compound 162]
A. 345

Q. // IC50 lookup, key: CS(=O)(=O)c1ccc(-c2cncc(Oc3ccc(F)cc3)n2)cc1 [Compound 211]
A. 1230

Q. // IC50 lookup, key: CS(=O)(=O)c1ccc(-c2cnc(C#N)c(NCc3cccs3)n2)cc1 [Compound 169]
A. 294
